Would you kindly list GI50 for each of these molecules?
- Test system: MOLT-4
- procedure summary: NCI tumour cell line growth inhibition, 48 h
Active and inactive are the calls of the source. No stated cut-off is given here; in the data, active = GI50 up to about 1.1 µM and inactive = higher.

Data request, read-out GI50, for CC1(C)C(=O)c2ccccc2OC1N1CCN(C2Oc3ccccc3C(=O)C2(C)C)CC1 (configuration not stated) > 100 µM (inactive)

Data request, read-out GI50, for `O=C1NCN(c2ccccc2)C12CCN(CCCN1CCN(CCOC(c3ccc(F)cc3)c3ccc(F)cc3)CC1)CC2` 3.15 µM (inactive)

Data request, read-out GI50, for `CSc1nncc2[nH]cnc12` > 100 µM (inactive)

Data request, read-out GI50, for O=c1[nH]c(=O)n(C2CC(O)C(CO)O2)cc1/N=N/NCCCc1ccccc1 (configuration not stated) > 100 µM (inactive)

Data request, read-out GI50, for OC1(c2ccccc2)C2CCN(CC2)C1CN1CCOCC1 (configuration not stated) > 100 µM (inactive)

Data request, read-out GI50, for `O=[N+]([O-])c1nccn1COCCBr` > 100 µM (inactive)

Data request, read-out GI50, for `COc1cc2nc(-c3cccs3)nc(Nc3cccc(Cl)c3)c2cc1OC` 61.8 µM (inactive)

Data request, read-out GI50, for `Cc1c2cc[n+](C)c(C)c2cc2c1[nH]c1ccccc12` 4.05 µM (inactive)

Data request, read-out GI50, for COC(=O)[C@H](CC(C)C)NC(=O)[C@H](Cc1ccccc1)N1CC2C=CC1C2 (some centres not stated) > 100 µM (inactive)

Data request, read-out GI50, for N#CC1=C(N)N2C(=O)/C(=C/c3ccccc3)SC2C(c2nc3ccccc3[nH]2)=C1c1ccccc1 (configuration not stated) 2.4 µM (inactive)

Data request, read-out GI50, for `COc1cc(/C=C(\C#N)c2ccccn2)cc(Br)c1O` 35 µM (inactive)

Data request, read-out GI50, for Cc1cc2c(cc1N)C(C)C1(CCC(=O)N2Cc2ccccc2)OCCO1 (configuration not stated) > 100 µM (inactive)

Data request, read-out GI50, for `CC1=Cc2cccc(C)c2C(=O)C1=O` 0.52 µM (active)

Data request, read-out GI50, for `CCCCCCc1cc2cc(-c3cn4ccsc4n3)c(=O)oc2cc1O` > 100 µM (inactive)

Data request, read-out GI50, for O=C(CC1(O)C(=O)Nc2ccccc21)c1ccc(Cl)c(Cl)c1 (configuration not stated) > 100 µM (inactive)

Data request, read-out GI50, for C=CCN(N=O)C(=O)N(CCC)CCCCC(NC(C)=O)C(=O)NCc1ccccc1 (configuration not stated) 22.5 µM (inactive)

Data request, read-out GI50, for `CC(=O)OCc1cc(OC(C)=O)c2cc3c(OC(C)=O)cccc3c(OC(C)=O)c2c1` 15.2 µM (inactive)

Data request, read-out GI50, for `C[n+]1c(Cl)cn2c3nc4ccccc4nc3c([O-])c(C#N)c21` > 100 µM (inactive)

Data request, read-out GI50, for OC1(c2ccc3ccccc3c2)c2c(c3ccccc3c3ccccc23)C2=NCCN21 (configuration not stated) 4.81 µM (inactive)

Data request, read-out GI50, for `Cc1ccc(C(=O)NCc2ccccc2)cc1/N=N/N(C)C` 56.8 µM (inactive)

Data request, read-out GI50, for C=CCOC1=C(OCC=C)C(C2COC(C)(C)O2)OC1=O (configuration not stated) > 100 µM (inactive)

Data request, read-out GI50, for `CC(=O)NNc1nc(C)c(C(=O)NNC(=O)C(=O)Nc2cccc(C(C)=O)c2)s1` 45.3 µM (inactive)

Where do the numbers come from? From ChEMBL document CHEMBL1201862.
